- system: Acetylcholinesterase human (AChE) (Homo sapiens, UniProt P22303)
- Construct: purchased Sigma-Aldrich (Poznań, Poland)
- Sequence (P22303 32-614): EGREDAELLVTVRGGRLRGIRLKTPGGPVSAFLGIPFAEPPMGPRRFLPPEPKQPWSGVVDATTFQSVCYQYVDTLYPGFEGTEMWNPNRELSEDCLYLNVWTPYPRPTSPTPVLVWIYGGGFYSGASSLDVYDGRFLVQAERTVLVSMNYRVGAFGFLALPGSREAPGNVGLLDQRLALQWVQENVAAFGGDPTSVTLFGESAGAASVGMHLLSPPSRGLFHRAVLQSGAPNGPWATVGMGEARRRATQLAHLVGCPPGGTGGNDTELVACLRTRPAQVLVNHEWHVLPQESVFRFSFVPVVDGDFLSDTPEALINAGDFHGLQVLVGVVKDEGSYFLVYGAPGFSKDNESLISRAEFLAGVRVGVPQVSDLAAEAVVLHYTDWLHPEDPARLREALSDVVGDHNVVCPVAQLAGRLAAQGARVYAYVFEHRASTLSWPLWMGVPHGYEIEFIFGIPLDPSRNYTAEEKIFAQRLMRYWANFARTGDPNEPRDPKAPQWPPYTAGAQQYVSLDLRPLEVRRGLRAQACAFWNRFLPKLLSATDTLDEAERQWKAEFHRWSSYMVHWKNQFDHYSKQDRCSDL
- assay.name: AChE inhibition kinetics, Ellman's method combined with capillary electrophoresis
- Assay type: biochemical
- test.parameters: inhibitor 0.01 mM; acetylthiocholine 0.36–46.00 mM; n = 6
- Excerpt: In this work, we used the combined Ellman’s method with the capillary electrophoresis method developed by us for the determination of 4,4-dithio-bis-acid nitrobenzoic (DBAN) (main enzyme reaction product) in the presence of acetylthiocholine (ACth), 5-thio-2-nitrobenzoic acid (NTB), 5,5′-dithio-bis-2-nitrobenzoic acid (DTNB), acetylcholinesterase (AChE) and inhibitors (I), (II), (III) and (IV) of acetylcholinesterase. […]
metric.name: Tilt Angle of Lineweaver-Burk line (°)
Give bare numbers, in °.

Hey, quick one: what's Tilt Angle of Lineweaver-Burk line for each of these?
1. CC(C)NCC(O)CN1C(=O)C2C(C1=O)C1(C)C(=O)C2(C)C(c2ccccc2)=C1c1ccccc1 (stereo not shown)
2. CCC12C(=O)C(CC)(C(c3ccccc3)=C1c1ccccc1)C1C(=O)N(CC(O)CNC(C)C)C(=O)C12 (stereo not shown)

Return:
1. 60.01
2. 59.52

For each of the molecules below, note its Tilt Angle of Lineweaver-Burk line.
1. CN(C)CC(O)CN1C(=O)C2C(C1=O)C1(C)C(=O)C2(C)C(c2ccccc2)=C1c1ccccc1 (stereo not shown)
2. CCC12C(=O)C(CC)(C(c3ccccc3)=C1c1ccccc1)C1C(=O)N(CC(O)CN(C)C)C(=O)C12 (stereo not shown)

Return:
1: 59.58; 2: 59.46
